Here's what we have: MIC numbers for Citrobacter freundii (F-34).
Show the value, then the unit it is measured in.

For the compound shown here, Cn1nnnc1SCC1=C(C(=O)O)N2C(=O)C(NC(=O)[C@H](NC(=O)c3cnc4c(c3O)C(=O)CCC4)c3ccccc3)C2SC1 (single isomer, unassigned) [Synthesis Example 1] , give the reported MIC.
0.78 µg/mL

Another compound to check: Cc1nnc(SCC2=C(C(=O)O)N3C(=O)[C@@H](NC(=O)Cn4cnnn4)[C@H]3SC2)s1 [CEZ, reference compound]
50 µg/mL

Another compound to check: Cn1nnnc1SCC1=C(C(=O)O)N2C(=O)C(NC(=O)[C@H](NC(=O)c3cnc4c(c3O)C(=O)CCC4)c3ccc(O)cc3)C2SC1 (single isomer, unassigned) [Synthesis Example 2]
0.39 µg/mL

Another compound to check: CC1(C)S[C@@H]2[C@H](NC(=O)C(C(=O)O)c3ccccc3)C(=O)N2[C@H]1C(=O)O (stereo partly drawn) [CB-PC, disodium-α-carboxybenzyl penicillin, reference compound]
3.13 µg/mL

---

Please go through the items and note down their concentration at 0.25 h.
Test: blood level in rats after intramuscular administration
Assay type: in vivo
Settings: rat, im, 20 mg/kg i.m., serum, 15 minutes, read-out: Blood level after administration (average value ± standard deviation)
Quick reminder: number only, in ng/mL, skip the unit.

For the molecule shown here, Cn1nnnc1SCC1=C(C(=O)O)N2C(=O)C(NC(=O)[C@H](NC(=O)c3cnc4c(c3O)C(=O)CCC4)c3ccccc3)C2SC1 (single isomer, unassigned) [Synthesis Example 1] , give the reported concentration at 0.25 h.
12100

Another molecule to check: Cn1nnnc1SCC1=C(C(=O)O)N2C(=O)C(NC(=O)[C@H](NC(=O)c3cnc4c(c3O)C(=O)CCC4)c3ccc(O)cc3)C2SC1 (single isomer, unassigned) [Synthesis Example 2]
20000

---

Test system: Pseudomonas aeruginosa (NCTC 7244)
Test: MIC in HIB medium at different inocula (turbidity)
Format: cell-based
Conditions: NCTC7244, 18 h, inoculum 10^7 cells/ml, 37° C.
METRIC: MIC

For the compound shown here, Cn1nnnc1SCC1=C(C(=O)O)N2C(=O)C(NC(=O)[C@H](NC(=O)c3cnc4c(c3O)C(=O)CCC4)c3ccc(O)cc3)C2SC1 (single isomer, unassigned) [Synthesis Example 2] , give the reported MIC.
12.5 µg/mL

Another compound to check: Cc1nnc(SCC2=C(C(=O)O)N3C(=O)[C@@H](NC(=O)Cn4cnnn4)[C@H]3SC2)s1 [CEZ, reference compound]
> 200 µg/mL

Another compound to check: CC1(C)S[C@@H]2[C@H](NC(=O)C(C(=O)O)c3ccccc3)C(=O)N2[C@H]1C(=O)O (stereo partly drawn) [CB-PC, disodium-α-carboxybenzyl penicillin, reference compound]
200 µg/mL

Another compound to check: Cn1nnnc1SCC1=C(C(=O)O)N2C(=O)C(NC(=O)[C@H](NC(=O)c3cnc4c(c3O)C(=O)CCC4)c3ccccc3)C2SC1 (single isomer, unassigned) [Synthesis Example 1]
25 µg/mL

---

Here's what we have: MIC numbers for Proteus rettgeri (T-2).
Quick reminder: number only, in µg/mL, skip the unit.

For the molecule shown here, Cn1nnnc1SCC1=C(C(=O)O)N2C(=O)C(NC(=O)[C@H](NC(=O)c3cnc4c(c3O)C(=O)CCC4)c3ccc(O)cc3)C2SC1 (single isomer, unassigned) [Synthesis Example 2] , give the reported MIC.
1.56

Another molecule to check: Cc1nnc(SCC2=C(C(=O)O)N3C(=O)[C@@H](NC(=O)Cn4cnnn4)[C@H]3SC2)s1 [CEZ, reference compound]
12.5

Another molecule to check: CC1(C)S[C@@H]2[C@H](NC(=O)C(C(=O)O)c3ccccc3)C(=O)N2[C@H]1C(=O)O (stereo partly drawn) [CB-PC, disodium-α-carboxybenzyl penicillin, reference compound]
3.13

Another molecule to check: Cn1nnnc1SCC1=C(C(=O)O)N2C(=O)C(NC(=O)[C@H](NC(=O)c3cnc4c(c3O)C(=O)CCC4)c3ccccc3)C2SC1 (single isomer, unassigned) [Synthesis Example 1]
1.56

---

Assay: blood level in rats after intramuscular administration
Type: in vivo
Details: rat, im, 20 mg/kg i.m., serum, 60 minutes, read-out: Blood level after administration (average value ± standard deviation)
METRIC: concentration at 1 h (µg/mL)
Quick reminder: number only, in µg/mL, skip the unit.

For the compound shown here, Cn1nnnc1SCC1=C(C(=O)O)N2C(=O)C(NC(=O)[C@H](NC(=O)c3cnc4c(c3O)C(=O)CCC4)c3ccc(O)cc3)C2SC1 (single isomer, unassigned) [Synthesis Example 2] , give the reported concentration at 1 h.
8

Another compound to check: Cn1nnnc1SCC1=C(C(=O)O)N2C(=O)C(NC(=O)[C@H](NC(=O)c3cnc4c(c3O)C(=O)CCC4)c3ccccc3)C2SC1 (single isomer, unassigned) [Synthesis Example 1]
9.1

---

Here's what we have: MIC numbers for Escherichia coli (NIHJ).
Quick reminder: number only, in µg/mL, skip the unit.

For Escherichia coli (NIHJ), provide MIC of Cn1nnnc1SCC1=C(C(=O)O)N2C(=O)C(NC(=O)[C@H](NC(=O)c3cnc4c(c3O)C(=O)CCC4)c3ccccc3)C2SC1 (single isomer, unassigned) [Synthesis Example 1] please.
0.78

Another molecule to check: CC1(C)S[C@@H]2[C@H](NC(=O)C(C(=O)O)c3ccccc3)C(=O)N2[C@H]1C(=O)O (stereo partly drawn) [CB-PC, disodium-α-carboxybenzyl penicillin, reference compound]
6.25

Another molecule to check: Cn1nnnc1SCC1=C(C(=O)O)N2C(=O)C(NC(=O)[C@H](NC(=O)c3cnc4c(c3O)C(=O)CCC4)c3ccc(O)cc3)C2SC1 (single isomer, unassigned) [Synthesis Example 2]
0.78

Another molecule to check: Cc1nnc(SCC2=C(C(=O)O)N3C(=O)[C@@H](NC(=O)Cn4cnnn4)[C@H]3SC2)s1 [CEZ, reference compound]
3.13

---

Here's what we have: MIC numbers for Streptococcus faecalis (Hoshi).
Quick reminder: number only, in µg/mL, skip the unit.

For the compound shown here, Cc1nnc(SCC2=C(C(=O)O)N3C(=O)[C@@H](NC(=O)Cn4cnnn4)[C@H]3SC2)s1 [CEZ, reference compound] , give the reported MIC.
25

Another compound to check: CC1(C)S[C@@H]2[C@H](NC(=O)C(C(=O)O)c3ccccc3)C(=O)N2[C@H]1C(=O)O (stereo partly drawn) [CB-PC, disodium-α-carboxybenzyl penicillin, reference compound]
50

Another compound to check: Cn1nnnc1SCC1=C(C(=O)O)N2C(=O)C(NC(=O)[C@H](NC(=O)c3cnc4c(c3O)C(=O)CCC4)c3ccc(O)cc3)C2SC1 (single isomer, unassigned) [Synthesis Example 2]
25

Another compound to check: Cn1nnnc1SCC1=C(C(=O)O)N2C(=O)C(NC(=O)[C@H](NC(=O)c3cnc4c(c3O)C(=O)CCC4)c3ccccc3)C2SC1 (single isomer, unassigned) [Synthesis Example 1]
25

---

Please go through the items and note down their MIC.
System: Pseudomonas aeruginosa (NCTC 7244)
Experiment: MIC in HIB medium at different inocula (turbidity)
Assay type: cell-based
Details: NCTC7244, 18 h, inoculum 10^6 cells/ml, 37° C.
Protocol: The compounds obtained in Synthesis Examples 1 and 2 were tested in the following manner. A suspension of Pseudomonas aeruginosa (NCTC 7244) cultivated at 37° C. for 18 hours in a heart infusion broth medium (HIB medium) in a final amount of 10^5, 10^6 and 10^7 cells/ml in an HIB medium containing each of the test compounds which was obtained in the same way as in Referential Example 1 except that the maximum concentration of the test compound was 200 μg/ml. […]
Quick reminder: number only, in mg/L, skip the unit.

For the molecule shown here, Cn1nnnc1SCC1=C(C(=O)O)N2C(=O)C(NC(=O)[C@H](NC(=O)c3cnc4c(c3O)C(=O)CCC4)c3ccc(O)cc3)C2SC1 (single isomer, unassigned) [Synthesis Example 2] , give the reported MIC.
6.25

Another molecule to check: Cn1nnnc1SCC1=C(C(=O)O)N2C(=O)C(NC(=O)[C@H](NC(=O)c3cnc4c(c3O)C(=O)CCC4)c3ccccc3)C2SC1 (single isomer, unassigned) [Synthesis Example 1]
12.5

Another molecule to check: CC1(C)S[C@@H]2[C@H](NC(=O)C(C(=O)O)c3ccccc3)C(=O)N2[C@H]1C(=O)O (stereo partly drawn) [CB-PC, disodium-α-carboxybenzyl penicillin, reference compound]
100

---

Tested on: Pseudomonas aeruginosa (F1629)
Test: minimum growth inhibitory concentration (MIC) method
Format: cell-based
Conditions: P. aeruginosa F1629, HIA medium, 37° C., 18 hours, sodium salts
Please go through the items and note down their MIC.
Quick reminder: number only, in µg/mL, skip the unit.

For the molecule shown here, Cn1nnnc1SCC1=C(C(=O)O)N2C(=O)C(NC(=O)[C@H](NC(=O)c3cnc4c(c3O)C(=O)CCC4)c3ccc(O)cc3)C2SC1 (single isomer, unassigned) [Synthesis Example 2] , give the reported MIC.
3.13

Another molecule to check: Cn1nnnc1SCC1=C(C(=O)O)N2C(=O)C(NC(=O)[C@H](NC(=O)c3cnc4c(c3O)C(=O)CCC4)c3ccccc3)C2SC1 (single isomer, unassigned) [Synthesis Example 1]
6.25
